Source of measurements: ChEMBL document CHEMBL2412989

Exercise: for every item that follows, state its recorded inhibition of growth at 0.001 µM.
Tested on: DU-145
Assay: Antiproliferative activity against human DU145 cells assessed as growth inhibition at 10^-9 M after 48 hrs by BrdU-incorporation assay relative to untreated cells
Format: functional
Conditions: DU-145, 48 h, read-out: GI
Numbers only, in %.

Could I get inhibition of growth at 0.001 µM for every one of these entries?
1. CC(C)(N)C(=O)N[C@@H](Cc1c[nH]c2ccccc12)C(=O)N1CCC[C@@]2(CC1)C(=O)Nc1ccccc12
2. CC(C)(N)C(=O)N[C@H](Cc1c[nH]c2ccccc12)C(=O)N1CCC[C@@]2(CC1)C(=O)Nc1ccccc12

OUT:
1: -20; 2: -4.8

Could I get inhibition of growth at 0.001 µM for every one of these entries?
1. CC(=O)NC(C)(C)C(=O)N[C@@H](Cc1c[nH]c2ccccc12)C(=O)N1CCC[C@@]2(CC1)C(=O)Nc1ccccc12
2. CC(C)(N)C(=O)N[C@H](Cc1c[nH]c2ccccc12)C(=O)N1CCC[C@]2(CC1)C(=O)Nc1ccccc12
3. CC(C)(N)C(=O)N[C@@H](Cc1c[nH]c2ccccc12)C(=O)N1CCC[C@]2(CC1)C(=O)Nc1ccccc12

OUT:
1.2
-2.4
-10

---

Assay: Agonist activity at GHS-R1a in rat pituitary cells
Assay type: cell-based
Details: Pituitary gland cell
reported.metric: EC50 (nM)
One number for each entry, in nM.

IN: What EC50 value was documented for this molecule, `CC(C)(N)C(=O)N[C@H](COCc1ccccc1)C(=O)N1CCC2(CC1)CN(S(C)(=O)=O)c1ccccc12` ?
OUT: 1.3
